# measurement-notes: Half-life of adrenalone diesters (R methyl, R1 = R2)
# Type: in vitro ADME
# experimental-parameters: R is methyl, medium not stated, read-out: half-life (t1/2)
# Source text: Further, it should be noted that R is preferrably methyl.
measured-quantity: half-life (min)
Report the value in min with no unit label.

Query: I would be grateful if you could share the reported half-life for "CNCC(=O)c1ccc(OC(=O)CC(C)C)c(OC(=O)CC(C)C)c1" .
Response: 19.2

Query: Please look up its half-life: "CCOC(=O)CCC(=O)Oc1ccc(C(=O)CNC)cc1OC(=O)CCC(=O)OCC"
Response: 1.01

Query: Consider the compound "CNCC(=O)c1ccc(OC(=O)C=Cc2ccccc2)c(OC(=O)C=Cc2ccccc2)c1" and give its measured half-life.
Response: 10.1

Query: Would you mind telling me what half-life value was observed for "CNCC(=O)c1ccc(OC(=O)C(C)(C)C)c(OC(=O)C(C)(C)C)c1" ?
Response: 57.8

Query: If you can, please state the reported half-life value of "CCCC(=O)Oc1ccc(C(=O)CNC)cc1OC(=O)CCC" .
Response: 2.13

Query: Return reported half-life; argument: "CCN(CC)C(=O)CCC(=O)Oc1ccc(C(=O)CNC)cc1OC(=O)CCC(=O)N(CC)CC"
Response: 8.55

Query: If you can, please state the reported half-life value of "CCCCCC(=O)Oc1ccc(C(=O)CNC)cc1OC(=O)CCCCC" .
Response: 2.96

* * *

# measurement-notes: Stability in isotonic saline buffer pH 7.4 at 37° C.
# Format: physicochemical
# experimental-parameters: isotonic saline buffer; Isotonic saline pH 7.4, 37° C.
measured-quantity: half-life (h)
Field: numeric (h). Do not append units.

Query: I would be grateful if you could share the reported half-life for "CCOC(=O)CCC(=O)Oc1ccc(C(=O)CNC)cc1OC(=O)CCC(=O)OCC" .
Response: 2.88

* * *

# measurement-notes: Enzymatic hydrolysis in human plasma at 37° C.
# Type: in vitro ADME
measured-quantity: half-life (min)
// return numeric value only (unit: min, not printed)

Query: Given the compound "CCOC(=O)CCC(=O)Oc1ccc(C(=O)CNC)cc1OC(=O)CCC(=O)OCC" , what is its reported half-life?
Response: 1.01

* * *

# measurement-notes: Enzymatic hydrolysis in aqueous humor at 37° C.
# Assay type: in vitro ADME, New Zealand albino rabbits
# experimental-parameters: rabbit
measured-quantity: half-life (min)
Give just the numeric value; min need not be written.

Query: // lookup half-life for "CCOC(=O)CCC(=O)Oc1ccc(C(=O)CNC)cc1OC(=O)CCC(=O)OCC"
Response: 1.36

* * *

# measurement-notes: Enzymatic hydrolysis in iris/ciliary body homogenate at 37° C.
# Type: in vitro ADME, New Zealand albino rabbits
# experimental-parameters: rabbit; Iris/ciliary body 10% homogenate, pH 7.4, 37° C.
measured-quantity: half-life (s)
Just the number please, in s, no unit attached.

Query: Quick one: half-life for "CCOC(=O)CCC(=O)Oc1ccc(C(=O)CNC)cc1OC(=O)CCC(=O)OCC" ?
Response: 52.8
